Test system: soybean plantlets
test-method-notes: High-throughput soybean screening for herbicide tolerance (plantlets)
Format: in vivo, soybean (A3555)
Design: key: 0 for poor tolerance, high damage, low green coloration; 1 for some tolerance, average damage, moderate green coloration; 2 for good tolerance, low damage, high green coloration
condition-notes: TP26; S-3100 spray five weeks post-transformation, scored day four
Excerpt: A high-throughput plant transformation and screening method was used to evaluate large numbers of constructs in transgenic plants for herbicide tolerance in early transformation plantlet tissue. This allowed for faster and higher volume screening of construct configurations and PPO enzymes. This permitted the side-by-side comparison of seven different HemG PPO enzymes with thirty-seven different targeting peptides using the same promoter and 3′UTR elements for gene expression. […]
assay-endpoint: coloration score
Answers are plain numbers.

Solved cases below.
H_N50: microbial HemG protoporphyrinogen oxidase, SEQ ID NO:7 (SEQ ID NO:16 lacking start methionine) (protein, listed as Shimwellia blattae) MKTLILFSTRDGQTHKIARHIAGVLEEQGKACELVDLLQPGEPDWSTVECVVLGASIRYGHFHKSFIRFVNTHAQRLNNMPGALFTVNLVARKPEKQSPQTNSYTRKFLAASPWQPQRCQVFAGALRYPRYSWYDRMMIRLIMKMAGGETDTRKEVEYTDWQSVTRFAREIAQLPGETR = 1
H_N30: microbial HemG protoporphyrinogen oxidase, SEQ ID NO:5 (SEQ ID NO:14 lacking start methionine) (protein, listed as Erwinia toletana) MKALILFSSREGQTREIASYIANSIKEEMECDVFNILRVEQIDWSQYDRVLIGGSIHYGHFHPAVAKFVKRHLHELQQRSSGFFCVNLTARKADKRTPQTNAYMRKFLLQSPWQPDCCAVFAGALRYTRYRWFDRVMIQLIMRMTGGETDTSKEVEYTDWTQVARFAQEFAHLPGKTQ = 0
H_N40: microbial HemG protoporphyrinogen oxidase, SEQ ID NO:6 (SEQ ID NO:15 lacking start methionine) (protein, listed as Pectobacterium carotovorum) MKALIVFSSRDGQTRAIASYIANTLKGTLECDVVNVLNANDIDLSQYDRVAIGASIRYGRFHPAVNQFIRKHLTSLQQLPSAFFSVNLTARKPEKRTIQTNAYTRKFLLNSPWQPDLCCVFAGALRYPRYRWFDRVMIQLIMRITGGETDSTKEIEYTDWQQVARFAQDFAQLAAKNPA = 1

stdin: Which coloration score reading was recorded for the molecule H_N90: microbial HemG protoporphyrinogen oxidase, SEQ ID NO:1 (SEQ ID NO:11 lacking start methionine; variants 18, 19) (protein, listed as Enterobacter cloacae) MKALVLYSTRDGQTHAIASYIASCMKEKAECDVIDLTHGEHVNLTQYDQVLIGASIRYGHFNAVLDKFIKRNVDQLNNMPSAFFCVNLTARKPEKRTPQTNPYVRKFLLATPWQPALCGVFAGALRYPRYRWIDKVMIQLIMRMTGGETDTSKEVEYTDWEQVKKFAEDFAKLSYKKAL ?
stdout: 0
